- target entity: T1, anthrax protective antigen, wild type PA83 (Bacillus anthracis, UniProt P13423 30-764)
- T1 construct: mature
- T1 sequence (P13423 30-764): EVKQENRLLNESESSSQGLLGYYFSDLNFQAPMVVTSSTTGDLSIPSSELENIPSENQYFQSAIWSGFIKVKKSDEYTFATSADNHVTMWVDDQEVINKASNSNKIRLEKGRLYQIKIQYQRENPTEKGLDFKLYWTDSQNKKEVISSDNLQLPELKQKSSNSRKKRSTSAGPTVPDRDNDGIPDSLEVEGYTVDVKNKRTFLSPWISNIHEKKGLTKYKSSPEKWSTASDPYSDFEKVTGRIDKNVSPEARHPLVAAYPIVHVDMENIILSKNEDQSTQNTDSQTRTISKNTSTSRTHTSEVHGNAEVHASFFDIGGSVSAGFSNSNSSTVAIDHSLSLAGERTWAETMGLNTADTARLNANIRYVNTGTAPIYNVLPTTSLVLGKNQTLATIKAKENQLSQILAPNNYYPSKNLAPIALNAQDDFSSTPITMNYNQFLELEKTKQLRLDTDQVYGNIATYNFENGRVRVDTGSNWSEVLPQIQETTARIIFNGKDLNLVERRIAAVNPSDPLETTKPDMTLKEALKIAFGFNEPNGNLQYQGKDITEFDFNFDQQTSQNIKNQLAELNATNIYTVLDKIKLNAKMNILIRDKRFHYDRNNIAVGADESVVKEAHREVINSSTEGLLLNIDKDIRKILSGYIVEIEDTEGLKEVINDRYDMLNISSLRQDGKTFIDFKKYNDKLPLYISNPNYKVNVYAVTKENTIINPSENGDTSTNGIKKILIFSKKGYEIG
- protocol notes: SPR (ProteOn XPR36)
Kd vs 8 nM: less than gives 1; not less than gives -1.

Reference set, count: 3
binder	discrete label
JIJ-D3 (VHH) VHH: QVQLVETGGLVQPGGSLRLSCAASGLTFSSTAMAWFRQAPGKEREFVARISGAGITIYYSDSVKDRFTISRNNVENTVYLQMNSLKTEDTAVYYCAARRNTYTSDYNIPARYPYWGQGTQVTVSS	-1
JIK-B10 (VHH) VHH: QVQLVETGGGLVQPGGSLRLSCAASGFTFSSYRMSWYRQAAGKERDVVATITANGVPTGYADSVMGRFTISRDNAKNTVYLEMNSLNPEDTAVYYCNAPRLHTSVGYWGQGTQVTVSS	-1
JIK-B8 (VHH) VHH: SGGGLVQPGGSLGLSCVVASERSINNYGMGWYRQAPGKQRELVAQISSGGTTNYADSVEGRFTISRDNVKKMVHLQVNSLKPEDTAVYYCNSLLRTFSWGQGTQVTVSS	1

Turning to the following binder.
Lookup: Please determine if JHD-B6 (VHH) VHH: QVQLVESGGGLVQPGGSLRLSCAASGSSFSRYAMRWYRQAPGKQRELVANINSRGTSNYADSVKGRFTISRDNAKNTVYLQMNSLKPEDTAVYYCNAEWLGRSEPSWGQGTQVTVSS is below 8 nM in terms of Kd.
Found: -1
